Molecular target: δ opioid receptor (UniProt P41143)
Experiment: radioligand binding
Starred links: 1 amine or outer side, 2 acyl side, 3 side chain; linkers in the order of their positions; H or OH if unused. Non-standard residues stand in square brackets, D forms with d. No end group written: not given here. Phe(2-(2-methyl-1-propenyl)) = CC(C)=Cc1ccccc1C[C@H](N[*:1])C(=O)[*:2]; Phe(4-(3-thienyl)) = O=C([C@H](Cc1ccc(-c2ccsc2)cc1)N[*:1])[*:2]; Phe(2-(3-thienyl)) = O=C([C@H](Cc1ccccc1-c1ccsc1)N[*:1])[*:2]; Phe(3-vinyl) = C=Cc1cccc(C[C@H](N[*:1])C(=O)[*:2])c1; Phe(4-vinyl) = C=Cc1ccc(C[C@H](N[*:1])C(=O)[*:2])cc1; Phe(2-vinyl) = C=Cc1ccccc1C[C@H](N[*:1])C(=O)[*:2]; Dmt = Cc1cc(O)cc(C)c1C[C@H](N)C(=O)O
For each of the binders below, state its pIC50.
One number for each entry, as −log10 of the molar value.

Guide cases for pIC50, answers given:
[Dmt][dA][Phe(2-vinyl)]G-NH2 (N-terminus assumed; SMILES C=Cc1ccccc1C[C@H](NC(=O)[C@@H](C)NC(=O)[C@@H](N)Cc1c(C)cc(O)cc1C)C(=O)NCC(N)=O) [Dmt-D-Ala-Phe(2-vinyl)-Gly-NH2] : 8.10
[Dmt][dA][Phe(2-(3-thienyl))]G-NH2 (N-terminus assumed; SMILES Cc1cc(O)cc(C)c1C[C@H](N)C(=O)N[C@H](C)C(=O)N[C@@H](Cc1ccccc1-c1ccsc1)C(=O)NCC(N)=O) [Dmt-D-Ala-Phe(2-(3-thienyl))-Gly-NH2] : 6.16
[Dmt][dR][Phe(3-vinyl)]G-NH2 (N-terminus assumed; SMILES C=Cc1cccc(C[C@H](NC(=O)[C@@H](CCCNC(=N)N)NC(=O)[C@@H](N)Cc2c(C)cc(O)cc2C)C(=O)NCC(N)=O)c1) [Dmt-D-Arg-Phe(3-vinyl)-Gly-NH2] : 6.78

# batch: return pIC50 for each of the 4 binders below
1. [Dmt][dR][Phe(4-vinyl)]G-NH2 (N-terminus assumed; SMILES C=Cc1ccc(C[C@H](NC(=O)[C@@H](CCCNC(=N)N)NC(=O)[C@@H](N)Cc2c(C)cc(O)cc2C)C(=O)NCC(N)=O)cc1) [Dmt-D-Arg-Phe(4-vinyl)-Gly-NH2]
2. [Dmt][dR][Phe(2-(2-methyl-1-propenyl))]G-NH2 (N-terminus assumed; SMILES CC(C)=Cc1ccccc1C[C@H](NC(=O)[C@@H](CCCNC(=N)N)NC(=O)[C@@H](N)Cc1c(C)cc(O)cc1C)C(=O)NCC(N)=O) [Dmt-D-Arg-Phe(2-(2-methyl-1-propenyl)-Gly-NH2]
3. [Dmt][dR][Phe(4-(3-thienyl))]G-NH2 (N-terminus assumed; SMILES Cc1cc(O)cc(C)c1C[C@H](N)C(=O)N[C@H](CCCNC(=N)N)C(=O)N[C@@H](Cc1ccc(-c2ccsc2)cc1)C(=O)NCC(N)=O) [Dmt-D-Arg-Phe(4-(3-thienyl))-Gly-NH2]
4. [Dmt][dR][Phe(2-vinyl)]G-NH2 (N-terminus assumed; SMILES C=Cc1ccccc1C[C@H](NC(=O)[C@@H](CCCNC(=N)N)NC(=O)[C@@H](N)Cc1c(C)cc(O)cc1C)C(=O)NCC(N)=O) [Dmt-D-Arg-Phe(2-vinyl)-Gly-NH2]

5.85
6.23
6.51
7.74

Cited source for all entries: paper PMC6005765
